So I've got a bunch of molecules here, and I need their Potency values.
Assay: qHTS of pediatric cancer cell lines to identify multiple opportunities for drug repurposing: Confirmatory screen for TC32 cells (AID 1347118);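 further: potency means the concentration at half of the fitted maximal effect; cells exposed to compound for 48 h before the read; nearly all actives have a fitted effect of over 65% in size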
Conditions: TC32 Ewing sarcoma cells viability qHTS
Results filed as inconclusive are left out. Active and inactive are the calls of the source. The call rests on the fitted dose curve; in most records, active means well fitted cell-killing curve with a large enough effect; inconclusive means small, poorly fitted or top-dose-only effect; inactive means no such curve, though single readings can be large or run the other way.

Can you look up the measured Potency of COC(=O)Nc1nc2ccc(C(=O)C3CC3)cc2[nH]1 for me?
1170 nM (active)

# query: Potency of entry COc1cccc2c1C(=O)c1c(O)c3c(c(O)c1C2=O)C[C@@](O)(C(=O)CO)C[C@@H]3O[C@H]1C[C@H](N)[C@H](O[C@@H]2CCCCO2)[C@H](C)O1
465 nM (active)

Query (molecule): CCCSc1ccc2nc(NC(=O)OC)[nH]c2c1 ; field requested: Potency
355 nM (active)

What does the record list as Potency for Nc1ccc([N+](=O)[O-])cc1O ?
7590 nM (active)

Recorded Potency of COC(=O)c1nc(Cl)c(Cl)nc1N , please.
2330 nM (active)

----------
Tested on: CAOV3
Test: Primary qHTS to identify gynecologic anti-cancer compounds using libraries of approved drugs and bioactive compounds (AID 1345084); further: nearly all actives have a fitted effect of over 55% in size
Settings: Gynecologic cancer cell panel viability, ATPlite luminescence, 48 h; series mostly up to 57.5 µM
Results filed as inconclusive are left out. The source made the active and inactive calls. Calls come from the whole dose curve; as a rule, active = well fitted cell-killing curve with a large enough effect; inconclusive = small, poorly fitted or top-dose-only effect, or effect the other way; inactive = flat fitted curve, though single readings scatter.
observation.type: activity change, negative = cytotoxicity

compound	activity change, negative = cytotoxicity
c1ccc2sc(SSc3nc4ccccc4s3)nc2c1	inactive
Clc1ccccc1-c1nc(-c2ccncc2)no1	inactive
CCCCCCCCCCCCCCCCCC(=O)O	inactive
CC1(C)[C@@H](O[C@H]2O[C@H](C(=O)O)[C@@H](O)[C@H](O)[C@H]2O[C@@H]2O[C@H](C(=O)O)[C@@H](O)[C@H](O)[C@H]2O)CC[C@]2(C)[C@H]3C(=O)C=C4[C@@H]5C[C@@](C)(C(=O)O)CC[C@]5(C)CC[C@@]4(C)[C@]3(C)CC[C@@H]12	inactive
C#C[C@]1(O)CC[C@H]2[C@@H]3CCc4cc(O)ccc4[C@H]3CC[C@@]21C	inactive
O=C(O)CC1CC(c2ccccc2)=NO1 (configuration not stated)	inactive
Cc1ccc(C(=O)c2ccc(CC(=O)O)n2C)cc1	inactive
C/C(=N\O)c1ccc(OCC(=O)N2CCCCC2)cc1	inactive
CC1(C)S[C@@H]2[C@H](NC(=O)[C@H](N)c3ccccc3)C(=O)N2[C@H]1C(=O)O	inactive
CCCOC(=O)c1ccc(O)cc1	inactive

Sample O=C(O)[C@H](CC(=O)N1C[C@H]2CCCC[C@H]2C1)Cc1ccccc1 — what was its activity change, negative = cytotoxicity?
inactive

Consider the compound Cc1onc(-c2c(F)cccc2Cl)c1C(=O)N[C@@H]1C(=O)N2[C@@H]1SC(C)(C)[C@@H]2C(=O)O and give its measured activity change, negative = cytotoxicity.
inactive

Reported activity change, negative = cytotoxicity for Fc1ccc2[nH]c(CN3CCN(c4ccccn4)CC3)cc2c1 : what is it?
inactive

# input compound: CCOC(=O)c1ccccc1O ; wanted: its activity change, negative = cytotoxicity
inactive

Recorded activity change, negative = cytotoxicity for CC(C(=O)O)c1ccc2c(c1)[nH]c1ccc(Cl)cc12 (configuration not stated) , please?
inactive

Which activity change, negative = cytotoxicity value is on record for O=Cc1ccc(O)c(O)c1O ?
inactive

Recorded activity change, negative = cytotoxicity for NS(=O)(=O)c1ccc(-n2nc(C(F)(F)F)cc2-c2ccc(Cl)cc2)cc1 , please?
inactive

Reported activity change, negative = cytotoxicity, compound Nc1ccc(O)c([N+](=O)[O-])c1 : ____
inactive

----------
Test: qHTS for inhibitors of adenylyl cyclases using a fission yeast platform: a pilot screen against the NCATS LOPAC library (AID 1347410)
Conditions: S. pombe CHP2027, fbp1-GFP fluorescence, 18 h, yeast expressing mammalian AC9 and human GNAS; series mostly up to 57.5 µM
Active and inactive are the calls of the source. Calls come from the whole dose curve; as a rule, active = well fitted curve in the direction sought with a large enough effect; inconclusive = small, poorly fitted or top-dose-only effect, or effect the other way, or another doubt; inactive = no such curve, though single readings can be large or run the other way.
observation.type: outcome

molecule	observation.type	reported.measurement
CCCCCCCCCCCCCCCC(=O)OC(CC(=O)O)C[N+](C)(C)C (configuration not stated)	outcome	inactive
CC[C@H]1OC(=O)[C@H](C)[C@@H](O[C@H]2C[C@@](C)(OC)[C@@H](O)[C@H](C)O2)[C@H](C)[C@@H](O[C@@H]2O[C@H](C)C[C@H](NC)[C@H]2O)[C@](C)(O)C[C@@H](C)CN(C)[C@H](C)[C@@H](O)[C@]1(C)O	outcome	inactive
CC(=O)/C=C1\C(=O)N(C)c2ccccc21	outcome	inactive
O=[N+]([O-])c1ccc2c(c1)S(=O)(=O)C=C2	outcome	inactive
CC[C@H]1OC(=O)[C@H](C)C(O[C@H]2C[C@@](C)(OC)[C@@H](O)[C@H](C)O2)[C@H](C)[C@@H](OC2O[C@H](C)C[C@H](N(C)C)[C@H]2O)[C@](C)(O)C[C@@H](C)CN(C)[C@H](C)[C@@H](O)[C@]1(C)O (some centres not stated)	outcome	inactive
COc1ccc(/C=C/c2nc(NCCCN(C)C)c3ccccc3n2)cc1	outcome	inactive
O=[N+]([O-])c1ccc(CNc2nc(NCc3cccc(C(F)(F)F)c3)nc3nc[nH]c23)cc1	outcome	inactive
C[N+]1(C)CCC(OC(=O)C(c2ccccc2)c2ccccc2)CC1	outcome	inactive

Please give the measured outcome for this molecule: Nc1nc2ccc(Cl)cc2n2c(-c3ccccc3)nnc12
inactive

Query: outcome; subject: CCCCC#Cc1nc(NC)c2ncn([C@@H]3O[C@H](CO)[C@@H](O)[C@H]3O)c2n1
inactive

What value of outcome has been recorded for this entry: Cc1cc2c(cc1Cl)N(C(=O)Nc1ccc(Oc3cccnc3C)nc1)CC2
inactive

Fill blank: measured outcome of the molecule O=C(O)CNC(=O)C(CS)Cc1ccccc1 (configuration not stated) is ____.
inactive

----------
Test: qHTS Assay for Identification of Small Molecule Inducers of Hypoxia Response (AID 2120)
Settings: hypoxia response reporter cells, beta-lactamase ratio readout; series mostly up to 104 µM
Results filed as inconclusive are left out. Active and inactive are the calls of the source. Calls come from the whole dose curve; as a rule, active = well fitted curve in the direction sought with a large enough effect in the signal ratio, with a control signal flat (not every such curve was filed as active); inconclusive = small, poorly fitted or top-dose-only effect, or a change in a side signal; inactive = no such curve, though single readings can be large or run the other way; the % refers to the signal ratio.
observation.type: outcome

For orientation, consider the following solved cases.
structure.smiles.string	outcome
S=c1[nH]c2ccccc2s1	inactive
CCCCCCCCCCCCCCCCCC(=O)O	inactive
CN(C)c1ccc(N=NS(=O)(=O)O)cc1	inactive
O=C1CN(/N=C/c2ccc([N+](=O)[O-])o2)C(=O)N1	inactive
O=c1cc(-c2ccccc2)oc2ccccc12	inactive
c1ccc2sc(SSc3nc4ccccc4s3)nc2c1	inactive

Requested read-out: outcome. Entry: C#C[C@]1(O)CC[C@H]2[C@@H]3CCc4cc(O)ccc4[C@H]3CC[C@@]21C
inactive

Reported outcome, compound O=C(O)/C=C\C(=O)O : ____
inactive

Which outcome reading was recorded for the compound NCCO ?
inactive

Given Nc1ccc(O)c(C(=O)O)c1 , state its recorded outcome.
inactive

----------
Molecular target: Tyrosine-protein phosphatase non-receptor type substrate 1 (Homo sapiens) + Leukocyte surface antigen CD47 (Homo sapiens) (UniProt P78324+Q08722)
Sequence (P78324 whole entry, looked up, the tested form may be a part): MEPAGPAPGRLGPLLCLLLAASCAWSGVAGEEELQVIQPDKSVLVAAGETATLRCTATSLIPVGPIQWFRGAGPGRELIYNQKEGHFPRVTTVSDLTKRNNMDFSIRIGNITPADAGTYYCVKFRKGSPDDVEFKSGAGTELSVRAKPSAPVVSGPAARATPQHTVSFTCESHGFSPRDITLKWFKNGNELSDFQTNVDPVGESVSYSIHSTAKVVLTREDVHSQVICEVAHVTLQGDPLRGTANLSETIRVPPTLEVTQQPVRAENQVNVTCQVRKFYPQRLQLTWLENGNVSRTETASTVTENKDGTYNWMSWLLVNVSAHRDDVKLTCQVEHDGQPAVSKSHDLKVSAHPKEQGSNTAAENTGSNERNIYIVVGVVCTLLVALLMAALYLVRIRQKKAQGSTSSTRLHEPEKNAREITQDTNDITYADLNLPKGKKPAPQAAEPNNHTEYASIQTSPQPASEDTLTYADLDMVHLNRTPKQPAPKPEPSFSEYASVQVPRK
Sequence (Q08722 whole entry, looked up, the tested form may be a part): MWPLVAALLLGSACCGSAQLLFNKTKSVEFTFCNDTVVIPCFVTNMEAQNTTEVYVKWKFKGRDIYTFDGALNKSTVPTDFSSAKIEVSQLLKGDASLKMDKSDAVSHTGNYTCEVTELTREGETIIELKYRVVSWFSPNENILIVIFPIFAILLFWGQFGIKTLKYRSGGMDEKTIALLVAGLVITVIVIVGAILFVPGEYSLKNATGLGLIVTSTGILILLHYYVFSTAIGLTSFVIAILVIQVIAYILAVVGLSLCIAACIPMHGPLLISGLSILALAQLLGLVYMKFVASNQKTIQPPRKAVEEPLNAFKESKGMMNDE
Assay: CD47-SIRPalpha protein protein interaction - HTRF assay qHTS validation (AID 1347058);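 further: recombinant soluble extracellular CD47 with His tag and biotinylated SIRPalpha domains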
Details: TR-FRET HTRF CD47-His / biotin-SIRPalpha binding, ratio 665/615; series mostly up to 38.3 µM
Inconclusive results are not listed. Active and inactive are the calls of the source. The call rests on the fitted dose curve; in most records, active means well fitted curve in the direction sought with a large enough effect in the signal ratio (not every such curve was filed as active); inconclusive means small, poorly fitted or top-dose-only effect, or effect the other way, or a change in a side signal; inactive means no such curve, though single readings can be large or run the other way; the % refers to the signal ratio.
observation.type: outcome

compound	observation.type	reported.measurement
O=C(CCCCCN1CCN(c2ccccc2-c2ccccc2)CC1)NC1CCCc2ccccc21 (configuration not stated)	outcome	inactive
CC(C)Cc1ccc([C@H](C)C(=O)O)cc1	outcome	inactive
NC(CCCP(=O)(O)O)C(=O)O (configuration not stated)	outcome	inactive
CCCCCCCC/C=C\CCCCCCCC(=O)NCCO	outcome	inactive
COc1cc(SC)ccc1C(=O)N1CCC(Cc2ccccc2)CC1	outcome	inactive

Look up outcome: CN1C2CCC1CC(OC(=O)C(O)c1ccccc1)C2 (configuration not stated)
inactive

Quick check: outcome of CNC(=O)[C@H]1O[C@@H](n2cnc3c(NCc4cccc(I)c4)ncnc32)[C@H](O)[C@@H]1O ?
inactive

Any idea what its outcome is? The compound is CCCCC#Cc1nc(NC)c2ncn([C@@H]3O[C@H](CO)[C@@H](O)[C@H]3O)c2n1
inactive

Requested read-out: outcome. Entry: Cc1cc(NC2CCCCC2)nc(-n2nc(C)cc2C)n1
inactive

----------
Assay: qHTS of pediatric cancer cell lines to identify multiple opportunities for drug repurposing: Primary screen for LAN-5 cells (AID 1347100)
Settings: LAN-5 neuroblastoma viability, CellTiter-Glo luminescence, 48 h; series mostly up to 46 µM
Results filed as inconclusive are left out. Activity calls are given as the source filed them. The call rests on the fitted dose curve; in most records, active means well fitted cell-killing curve with a large enough effect; inconclusive means small, poorly fitted or top-dose-only effect; inactive means no such curve, though single readings can be large or run the other way.
observation.type: outcome

molecule	outcome
O=C(O)Cc1ccc(-c2ccccc2)cc1	inactive
COc1cc2c3cc1Oc1cc(ccc1O)C[C@@H]1c4c(cc(OC)c(O)c4Oc4ccc(cc4)C[C@@H]3N(C)CC2)CC[N+]1(C)C	inactive
S=c1[nH]c2ccccc2s1	inactive
O=C(O)c1ccccc1Nc1cccc(C(F)(F)F)c1	inactive
CCCCCCCC/C=C/C(=O)O	inactive

Would you kindly share the measured outcome for CC(N)C(=O)OC(C)(C)Cc1ccc(Cl)cc1 (stereo unspecified) ?
inactive

meta.source: PubChem BioAssay (NCATS)
